meta.source: ChEMBL document CHEMBL4014354

Test system: nuclear DNA levels
Assay explanation: in vitro
Cond: human, HepG2 cells
Recorded metric: cytotoxicity at 14 days, 10 µM

[
  {
    "Compound": "Nc1ccn([C@H]2CC[C@@H](CO)O2)c(=O)n1",
    "cytotoxicity at 14 days, 10 µM": "53%"
  },
  {
    "Compound": "CC(C)OC(=O)[C@H](C)NP(=O)(OC[C@H]1O[C@@H](n2ccc(=O)[nH]c2=O)[C@@](F)(Cl)[C@@H]1O)Oc1ccccc1 (mixture of isomers)",
    "cytotoxicity at 14 days, 10 µM": "< 1%"
  }
]

Challenge: Specify cytotoxicity at 14 days, 10 µM for O=c1ccn([C@@H]2O[C@H](CO)[C@@H](O)[C@]2(F)Cl)c(=O)[nH]1 and stop.
Response given: 8.8%

Challenge: Read the entry CC(C)OC(=O)[C@H](C)N[P@](=O)(OC[C@H]1O[C@@H](n2ccc(=O)[nH]c2=O)[C@](C)(F)[C@@H]1O)Oc1ccccc1 and write its reported cytotoxicity at 14 days, 10 µM.
Response given: 7.3%
